Recorded values, source patent US10285989B2.

target: P-glycoprotein (P-gp) (Homo sapiens (Human), UniProt P08183); assay: P-gp transport, experimental BA/AB ratio, human; assay type: in vitro ADME; settings: LLC-PK1, 1 μM substrate concentration
Sequence (P08183 whole entry): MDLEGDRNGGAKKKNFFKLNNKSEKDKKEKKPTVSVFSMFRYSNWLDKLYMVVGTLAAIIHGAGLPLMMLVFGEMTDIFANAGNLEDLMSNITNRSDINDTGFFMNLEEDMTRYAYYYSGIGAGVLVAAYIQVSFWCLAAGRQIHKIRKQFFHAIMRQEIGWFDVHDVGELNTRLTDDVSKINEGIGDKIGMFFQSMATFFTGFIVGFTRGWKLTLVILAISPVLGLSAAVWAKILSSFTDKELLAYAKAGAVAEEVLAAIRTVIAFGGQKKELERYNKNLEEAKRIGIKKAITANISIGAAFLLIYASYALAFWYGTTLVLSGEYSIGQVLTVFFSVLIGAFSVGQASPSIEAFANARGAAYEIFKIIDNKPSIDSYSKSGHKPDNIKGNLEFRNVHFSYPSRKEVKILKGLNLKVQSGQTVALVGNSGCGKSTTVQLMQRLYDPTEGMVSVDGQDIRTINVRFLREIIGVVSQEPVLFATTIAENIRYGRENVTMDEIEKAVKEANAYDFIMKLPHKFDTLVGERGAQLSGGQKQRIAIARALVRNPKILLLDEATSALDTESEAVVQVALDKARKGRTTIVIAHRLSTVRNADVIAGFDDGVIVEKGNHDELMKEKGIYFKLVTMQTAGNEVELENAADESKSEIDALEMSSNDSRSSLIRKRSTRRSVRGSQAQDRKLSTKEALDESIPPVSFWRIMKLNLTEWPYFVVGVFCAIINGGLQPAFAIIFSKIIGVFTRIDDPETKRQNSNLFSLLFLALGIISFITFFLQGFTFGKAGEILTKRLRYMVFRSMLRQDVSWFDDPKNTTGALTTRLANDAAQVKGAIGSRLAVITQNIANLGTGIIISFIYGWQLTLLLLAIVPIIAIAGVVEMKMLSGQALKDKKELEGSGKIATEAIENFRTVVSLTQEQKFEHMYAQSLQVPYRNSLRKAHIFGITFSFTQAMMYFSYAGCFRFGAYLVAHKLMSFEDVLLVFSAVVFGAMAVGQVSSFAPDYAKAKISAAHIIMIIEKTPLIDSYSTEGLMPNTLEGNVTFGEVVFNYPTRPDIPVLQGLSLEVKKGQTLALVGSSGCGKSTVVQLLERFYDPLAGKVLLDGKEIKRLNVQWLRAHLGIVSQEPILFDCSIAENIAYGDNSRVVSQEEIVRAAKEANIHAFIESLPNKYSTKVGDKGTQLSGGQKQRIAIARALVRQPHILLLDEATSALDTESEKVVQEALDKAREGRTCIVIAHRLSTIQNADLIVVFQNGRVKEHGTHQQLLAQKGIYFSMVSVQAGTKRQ
reported.metric: efflux ratio at 1 μM

Recorded results for 5 compounds are shown here.
{"columns": ["smiles.data", "efflux ratio at 1 μM"],
 "data": [
  ["O=C(NC1(c2ccc(C(F)(F)F)c(F)c2)CC1)c1cc(=O)[nH]c(N2CCCC2)n1", 0.8],
  ["CN(C)c1nc(C(=O)N[C@@H](c2ccc(C(F)F)c(F)c2)C(C)(C)C)cc(=O)[nH]1", 1.2],
  ["CNc1nc(C(=O)N[C@H](C)c2ccc(C(F)(F)F)cc2)cc(=O)[nH]1", 2.7],
  ["CN(C)c1nc(C(=O)N[C@@H](c2ccc(SC(F)(F)F)c(F)c2)C2CC2)cc(=O)[nH]1", 0.4],
  ["CC[C@@H](NC(=O)c1cc(=O)[nH]c(N(C)C)n1)c1ccc(OC(F)(F)F)cc1", 0.5]
]}

(A) CC[C@@H](NC(=O)c1cc(=O)[nH]c(N(C)C)n1)c1ccc(OC(F)(F)F)c(F)c1
(B) CN(C)c1nc(C(=O)N[C@@H](c2ccc(OC(F)F)cc2)C(C)(C)C)cc(=O)[nH]1
Query block: Between the two listed entries A and B , which has its efflux ratio at 1 μM at the higher number? Response format: the label of the selected entry.
Result block: B
